Molecular target: UP1 (RRM1-RRM2 fragment of hnRNP A1) (UniProt P09651 1-196)
Sequence (P09651 1-196): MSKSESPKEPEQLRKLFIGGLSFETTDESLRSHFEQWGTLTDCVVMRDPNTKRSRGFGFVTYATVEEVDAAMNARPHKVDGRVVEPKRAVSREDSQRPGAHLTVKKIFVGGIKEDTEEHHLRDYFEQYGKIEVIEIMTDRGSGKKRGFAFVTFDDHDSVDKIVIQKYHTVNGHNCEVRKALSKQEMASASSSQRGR
Test: ITC

| binder | Kd (µM) |
| --- | --- |
| GCACCACAGGAUCAAUAGCAGGUGUGGCACACCAGUCAUACCUUGAUCC (structured_RNA) [EV2] | 5.1 |

Origin of values: paper PMC6837886
